measurement-notes: pKa, log P and log D of 4-31 measured by Absorption Systems
Type: physicochemical
protocol-conditions: pH 9.0; octanol/0.15 M KCl
readout-label: logD

## Task Given `Cc1cc(=O)[nH]c2c1C(=O)c1c(C)cc(=O)n(CC(C)C)c1C2=O` , state its recorded logD.
## Result 0.76

====

target-or-test-system: NQO1 (Homo sapiens)
Sequence (P15559 whole entry): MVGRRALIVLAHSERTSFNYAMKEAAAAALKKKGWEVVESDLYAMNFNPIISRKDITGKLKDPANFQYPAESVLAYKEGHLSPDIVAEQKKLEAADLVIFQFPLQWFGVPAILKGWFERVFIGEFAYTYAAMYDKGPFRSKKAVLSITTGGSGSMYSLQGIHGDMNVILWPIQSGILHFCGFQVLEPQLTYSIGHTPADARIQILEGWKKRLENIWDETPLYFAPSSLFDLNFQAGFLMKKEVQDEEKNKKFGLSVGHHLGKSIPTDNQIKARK
measurement-notes: NQO1 enzymatic measurements in vitro
Type: biochemical
protocol-conditions: 1 μM substrate
In this section we review reported NQO1 Initial Velocity @ 1 μM values for a set of molecules.

# smiles-entry, NQO1 Initial Velocity @ 1 μM
measured = [
    ("CCCCn1c2c(c(C)cc1=O)C(=O)c1c(CCC)cc(=O)[nH]c1C2=O", "350 ± 10"),
    ("Cc1cc(=O)[nH]c2c1C(=O)c1c(C)cc(=O)n(CCC(C)C)c1C2=O", "2100 ± 90"),
    ("CCCn1c2c(c(C)cc1=O)C(=O)c1c(C)cc(=O)[nH]c1C2=O", "1590 ± 70"),
]

Kindly review the next molecule as well.
## Task Given `Cc1cc(=O)[nH]c2c1C(=O)c1c(C)cc(=O)n(CCCO)c1C2=O` , state its recorded NQO1 Initial Velocity @ 1 μM.
## Result 1600 ± 200

====

In this section we review reported log10(IC50) values for a set of compounds.
Tested on: MCF-7 cells
measurement-notes: Cytotoxicity to MCF-7 cells with or without 25 μM dicoumarol (sulforhodamine B assay)
Assay type: cell-based, human
protocol-conditions: Homo sapiens, MCF7, Table 4.2; no DIC; ± s.e.; read-out: IC50 vs. MCF-7 cells
Hey, these are logged values: log10 of IC50, nM being the unit before logging.

# compound, target-or-test-system, log10(IC50)
records = [
    ("Cc1cc(=O)[nH]c2c1C(=O)c1c(C)cc(=O)n(C(C)C)c1C2=O", "MCF-7 cells", 2.38),
]

## Task Given `CCCCCn1c2c(c(C)cc1=O)C(=O)c1c(C)cc(=O)[nH]c1C2=O` , state its recorded log10(IC50).
## Result 2.30

## Task Given `CCCCn1c2c(c(C)cc1=O)C(=O)c1c(CCC)cc(=O)[nH]c1C2=O` , state its recorded log10(IC50).
## Result 3.80

## Task Given `Cc1cc(=O)[nH]c2c1C(=O)c1c(C)cc(=O)n(CCCO)c1C2=O` , state its recorded log10(IC50).
## Result 2.83

## Task Given `Cc1cc(=O)[nH]c2c1C(=O)c1c(C)cc(=O)n(CC(C)C)c1C2=O` , state its recorded log10(IC50).
## Result 2.36

## Task Given Cc1cc(=O)[nH]c2c1C(=O)c1c(C)cc(=O)n(C)c1C2=O [DNQ, Deoxynyboquinone, reference compound] , state its recorded log10(IC50).
## Result 2.11

====

measurement-notes: pKa, log P and log D of 4-31 measured by Absorption Systems
Type: physicochemical
protocol-conditions: pH 7.0; octanol/0.15 M KCl
From the text: A sample of compound 4-31 was delivered to Absorption Systems, a company that specializes in preclinical formulation and stability studies. […] They measured a few physical properties of 4-31, including pKa, log P and log D. Through potentiometric titrations they measured the pKa of 4-31 to be 8.0.
readout-label: logD
Give a plain numeric answer without units written out.

## Task Given `Cc1cc(=O)[nH]c2c1C(=O)c1c(C)cc(=O)n(CC(C)C)c1C2=O` , state its recorded logD.
## Result 1.75

====

In this section we review reported NQO1 Initial Velocity @ 1 μM values for a set of compounds.
target-or-test-system: NQO1 (Homo sapiens)
measurement-notes: NQO1 enzymatic measurements in vitro
Format: biochemical
protocol-conditions: 1 μM substrate
Give a plain numeric answer without units written out.

Answered examples (5):
# compound, readout-label, recorded-measurement
data = [
    ("CCn1c2c(c(C)cc1=O)C(=O)c1c(C)cc(=O)[nH]c1C2=O", "NQO1 Initial Velocity @ 1 μM", 1500),
    ("CCCCCCn1c2c(c(C)cc1=O)C(=O)c1c(C)cc(=O)[nH]c1C2=O", "NQO1 Initial Velocity @ 1 μM", 1850),
    ("Cc1cc(=O)[nH]c2c1C(=O)c1c(C)cc(=O)n(CCC(C)(C)C)c1C2=O", "NQO1 Initial Velocity @ 1 μM", 2000),
    ("CCCCn1c2c(c(C)cc1=O)C(=O)c1c(C)cc(=O)[nH]c1C2=O", "NQO1 Initial Velocity @ 1 μM", 2100),
    ("Cc1cc(=O)[nH]c2c1C(=O)c1c(C)cc(=O)n(CC(C)(C)C)c1C2=O", "NQO1 Initial Velocity @ 1 μM", 1700),
]

## Task Given `CCCCCn1c2c(c(C)cc1=O)C(=O)c1c(C)cc(=O)[nH]c1C2=O` , state its recorded NQO1 Initial Velocity @ 1 μM.
## Result 1700

## Task Given `Cc1cc(=O)[nH]c2c1C(=O)c1c(C)cc(=O)n(CC(C)C)c1C2=O` , state its recorded NQO1 Initial Velocity @ 1 μM.
## Result 1900

## Task Given Cc1cc(=O)[nH]c2c1C(=O)c1c(C)cc(=O)n(C)c1C2=O [DNQ, Deoxynyboquinone, reference compound] , state its recorded NQO1 Initial Velocity @ 1 μM.
## Result 1900

====

In this section we review reported solubility at 30 min values for a set of molecules.
measurement-notes: Aqueous solubility in pH 7.4 PBS by LC-MS
Assay type: physicochemical
protocol-conditions: phosphate buffered saline, pH 7.4, aqueous buffer, thermodynamic from solid, PBS pH 7.4; Table 4.3

## Task Given Cc1cc(=O)[nH]c2c1C(=O)c1c(C)cc(=O)n(CC3CC3)c1C2=O [Compound 4-37] , state its recorded solubility at 30 min.
## Result 114 µM

## Task Given CCCc1cc(=O)n(C)c2c1C(=O)c1c(C)cc(=O)[nH]c1C2=O [Compound 4-9] , state its recorded solubility at 30 min.
## Result 59 µM

## Task Given CCc1cc(=O)[nH]c2c1C(=O)c1c(CC)cc(=O)n(C)c1C2=O [Compound 4-29] , state its recorded solubility at 30 min.
## Result 84 µM

## Task Given Cc1cc(=O)[nH]c2c1C(=O)c1c(C)cc(=O)n(C(C)C)c1C2=O [Compound 4-30] , state its recorded solubility at 30 min.
## Result 41 µM

## Task Given Cc1cc(=O)[nH]c2c1C(=O)c1c(C)cc(=O)n(CCCO)c1C2=O [Compound 9-281] , state its recorded solubility at 30 min.
## Result 485 µM

## Task Given CCCCCn1c2c(c(C)cc1=O)C(=O)c1c(C)cc(=O)[nH]c1C2=O [Compound 9-255] , state its recorded solubility at 30 min.
## Result < 5 µM

====

measurement-notes: pKa, log P and log D of 4-31 measured by Absorption Systems
Type: physicochemical
protocol-conditions: potentiometric titrations; N—H
readout-label: pKa
Give a plain numeric answer without units written out.

## Task Given `Cc1cc(=O)[nH]c2c1C(=O)c1c(C)cc(=O)n(CC(C)C)c1C2=O` , state its recorded pKa.
## Result 8

====

measurement-notes: Solubility in organic solvents
Format: physicochemical
protocol-conditions: organic solvent or mixture, thermodynamic from solid; CH2Cl2:MeOH 2:1; Table 1; read-out: CH2Cl2:MeOH 2:1 solubility
Decide using solubility: a value greater than or equal to 80 mM is 1 (yes), a smaller one is 0 (no).

Worked set:
# compound, label-value
rows = [
    ("CCCCCn1c2c(c(C)cc1=O)C(=O)c1c(C)cc(=O)[nH]c1C2=O", "1 (yes)"),
    ("Cc1cc(=O)[nH]c2c1C(=O)c1c(C)cc(=O)n(CCCO)c1C2=O", "0 (no)"),
    ("CCCCn1c2c(c(CCC)cc1=O)C(=O)c1c(C)cc(=O)[nH]c1C2=O", "0 (no)"),
    ("CCc1cc(=O)n(C)c2c1C(=O)c1c(C)cc(=O)[nH]c1C2=O", "0 (no)"),
]

## Task Test whether the compound `Cc1cc(=O)[nH]c2c1C(=O)c1c(C)cc(=O)n(CC(C)(C)C)c1C2=O` records solubility of 80 mM or higher.
## Result 1 (yes)

## Task Test whether the compound `CCCCn1c2c(c(CCC)cc1=O)C(=O)c1c(CCC)cc(=O)[nH]c1C2=O` records solubility of 80 mM or higher.
## Result 0 (no)

## Task Test whether the compound Cc1cc(=O)[nH]c2c1C(=O)c1c(C)cc(=O)n(C)c1C2=O [DNQ, Deoxynyboquinone, reference compound] records solubility of 80 mM or higher.
## Result 0 (no)

## Task Test whether the compound `CCc1cc(=O)[nH]c2c1C(=O)c1c(CC)cc(=O)n(C)c1C2=O` records solubility of 80 mM or higher.
## Result 0 (no)
